system: Trypanosoma cruzi, epimastigote form of the Tulahuen 2 strain; test: In vitro growth inhibition of Trypanosoma cruzi epimastigotes (Tulahuen 2 strain), absorbance at 600 nm; format: cell-based; conditions: 120 h, absorbance on day 5, duplicate, error ±3%, read-out: IC50 Anti-T. cruzi activity of the Tulahuen 2 strain
endpoint_name: IC50 (µM)
Report the value in µM with no unit label.

| molecule | target_of_assay | endpoint_name | unit_abbrev | reported_value |
| --- | --- | --- | --- | --- |
| NC1=NS(=O)(=O)Nc2nc(C3CCOC3)[nH]c21 (stereo not drawn) [drawing 12] | Trypanosoma cruzi, epimastigote form of the Tulahuen 2 strain | IC50 | µM | 20.3 |
| NC1=NS(=O)(=O)Nc2nc(-c3ccccc3F)[nH]c21 | Trypanosoma cruzi, epimastigote form of the Tulahuen 2 strain | IC50 | µM | 20.2 |

Could you now look at the following molecule, please?
Look up Trypanosoma cruzi, epimastigote form of the Tulahuen 2 strain data: IC50 of NC1=NS(=O)(=O)N(Cc2ccc(Cl)cc2)c2nc(-c3ccccc3F)[nH]c21 [drawing 16] , then report it. 7
